Origin of values: ChEMBL document CHEMBL4725474

ASSAY PROCEDURE: Cytotoxicity against human MWCL1 cells expressing MYD88 mutant assessed as cell killing measured after 72 hrs by CellTiter-Glo luminescent cell viability assay
Type: functional, cell-based
MEASUREMENT CONTEXT: Homo sapiens, MWCL1, 72 h; read-out: EC50
pEC50: −log10 of the molar value.
READOUT: pEC50

>>> meas_value("CN(C)C/C=C/C(=O)Nc1cccc(C(=O)Nc2ccc(NC(=O)c3cccc(-c4ccn[nH]4)n3)cc2)c1")
5.09
>>> meas_value("C=CC(=O)Nc1ccc(C(=O)Nc2ccc(NC(=O)c3cccc(-c4ccn[nH]4)n3)cc2)cc1")
5.31
>>> meas_value("C=CC(=O)Nc1cccc(C(=O)Nc2ccc(NC(=O)c3cccc(-c4ccn[nH]4)n3)cc2)c1")
5.41
>>> meas_value("C=CC(=O)Nc1cccc(C(=O)Nc2cccc(NC(=O)c3cccc(-c4ccn[nH]4)n3)c2)c1")
4.54

----------
ASSAY TARGET: Interleukin-1 receptor-associated kinase 1 (Homo sapiens, UniProt P51617)
Sequence (P51617 whole entry, the tested form may be a part): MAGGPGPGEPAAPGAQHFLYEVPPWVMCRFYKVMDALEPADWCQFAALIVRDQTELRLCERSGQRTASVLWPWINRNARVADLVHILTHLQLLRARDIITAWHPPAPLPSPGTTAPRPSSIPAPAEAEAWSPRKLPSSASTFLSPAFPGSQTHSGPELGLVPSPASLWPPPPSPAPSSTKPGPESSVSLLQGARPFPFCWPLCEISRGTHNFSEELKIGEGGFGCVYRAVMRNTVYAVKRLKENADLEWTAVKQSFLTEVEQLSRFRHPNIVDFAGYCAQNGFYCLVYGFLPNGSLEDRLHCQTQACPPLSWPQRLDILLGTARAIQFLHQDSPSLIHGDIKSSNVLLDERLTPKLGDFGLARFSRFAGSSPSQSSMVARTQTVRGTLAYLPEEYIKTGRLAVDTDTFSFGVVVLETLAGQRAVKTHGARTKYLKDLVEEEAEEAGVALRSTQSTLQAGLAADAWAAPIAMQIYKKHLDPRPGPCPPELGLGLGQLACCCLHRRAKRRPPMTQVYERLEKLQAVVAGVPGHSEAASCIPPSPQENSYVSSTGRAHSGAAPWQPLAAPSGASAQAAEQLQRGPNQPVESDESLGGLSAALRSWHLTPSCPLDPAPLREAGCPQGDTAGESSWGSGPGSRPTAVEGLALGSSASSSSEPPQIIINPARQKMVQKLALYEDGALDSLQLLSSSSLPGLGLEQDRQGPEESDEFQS
ASSAY PROCEDURE: Inhibition of recombinant IRAK1 (unknown origin) by Invitrogen adapta assay
READOUT: IC50 (µM)

>>> meas_value("CC1NC(=O)NC1CCCCCC(=O)NCCOCCOCCOCCNC(=O)CCN(C)C/C=C/C(=O)Nc1cccc(C(=O)Nc2ccc(NC(=O)c3cccc(-c4ccn[nH]4)n3)cc2)c1 (configuration not stated)")
0.07
>>> meas_value("CN(C)C/C=C/C(=O)Nc1cccc(C(=O)Nc2ccc(NC(=O)c3cccc(-c4ccn[nH]4)n3)cc2)c1")
0.052

----------
ASSAY TARGET: Mitogen-activated protein kinase kinase kinase 19 (Homo sapiens)
Sequence (Q56UN5 whole entry, the tested form may be a part): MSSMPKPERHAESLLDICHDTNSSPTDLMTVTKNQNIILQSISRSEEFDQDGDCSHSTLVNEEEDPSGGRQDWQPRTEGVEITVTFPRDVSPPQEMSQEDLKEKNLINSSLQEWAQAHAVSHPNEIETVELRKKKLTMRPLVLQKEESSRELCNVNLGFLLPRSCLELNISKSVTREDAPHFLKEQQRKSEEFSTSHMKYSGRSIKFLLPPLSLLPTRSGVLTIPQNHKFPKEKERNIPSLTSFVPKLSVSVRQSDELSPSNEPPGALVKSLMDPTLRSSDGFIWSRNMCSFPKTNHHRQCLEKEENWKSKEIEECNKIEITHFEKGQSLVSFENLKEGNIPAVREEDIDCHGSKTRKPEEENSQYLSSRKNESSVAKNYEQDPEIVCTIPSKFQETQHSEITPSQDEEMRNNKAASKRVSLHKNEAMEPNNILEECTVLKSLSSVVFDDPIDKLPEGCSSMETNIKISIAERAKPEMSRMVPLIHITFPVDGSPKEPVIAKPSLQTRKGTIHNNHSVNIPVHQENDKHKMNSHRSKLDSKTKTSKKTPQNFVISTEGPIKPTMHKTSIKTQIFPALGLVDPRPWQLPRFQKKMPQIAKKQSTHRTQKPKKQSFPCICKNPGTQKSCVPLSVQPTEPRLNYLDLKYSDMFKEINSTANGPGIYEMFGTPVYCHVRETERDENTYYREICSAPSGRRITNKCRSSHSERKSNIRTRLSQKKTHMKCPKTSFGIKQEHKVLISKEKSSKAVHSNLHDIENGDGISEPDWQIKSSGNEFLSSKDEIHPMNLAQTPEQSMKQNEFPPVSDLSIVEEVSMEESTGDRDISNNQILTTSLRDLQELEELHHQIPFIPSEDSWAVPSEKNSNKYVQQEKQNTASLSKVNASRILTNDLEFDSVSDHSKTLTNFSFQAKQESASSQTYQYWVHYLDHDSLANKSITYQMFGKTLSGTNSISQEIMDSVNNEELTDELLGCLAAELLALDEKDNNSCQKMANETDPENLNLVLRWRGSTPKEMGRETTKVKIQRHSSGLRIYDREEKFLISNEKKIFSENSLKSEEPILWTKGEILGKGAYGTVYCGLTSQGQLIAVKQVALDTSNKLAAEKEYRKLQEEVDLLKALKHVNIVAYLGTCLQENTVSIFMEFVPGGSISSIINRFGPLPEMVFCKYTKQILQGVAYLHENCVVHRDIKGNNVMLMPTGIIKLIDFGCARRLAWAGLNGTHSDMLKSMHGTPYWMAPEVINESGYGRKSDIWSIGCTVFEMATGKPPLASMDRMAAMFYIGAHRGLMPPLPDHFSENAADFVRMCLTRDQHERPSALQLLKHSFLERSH
ASSAY PROCEDURE: Inhibition of wild-type human partial length YSK4 (T1019 to H1328 residues) expressed in mammalian expression system by Kinomescan method
READOUT: IC50 (nM)

>>> meas_value("C=CC(=O)Nc1cccc(C(=O)Nc2ccc(NC(=O)c3cccc(-c4ccn[nH]4)n3)cc2)c1")
57

----------
# IC50 per record follows
ASSAY TARGET: Interleukin-1 receptor-associated kinase 4 (Homo sapiens)
Sequence (Q9NWZ3 whole entry, the tested form may be a part): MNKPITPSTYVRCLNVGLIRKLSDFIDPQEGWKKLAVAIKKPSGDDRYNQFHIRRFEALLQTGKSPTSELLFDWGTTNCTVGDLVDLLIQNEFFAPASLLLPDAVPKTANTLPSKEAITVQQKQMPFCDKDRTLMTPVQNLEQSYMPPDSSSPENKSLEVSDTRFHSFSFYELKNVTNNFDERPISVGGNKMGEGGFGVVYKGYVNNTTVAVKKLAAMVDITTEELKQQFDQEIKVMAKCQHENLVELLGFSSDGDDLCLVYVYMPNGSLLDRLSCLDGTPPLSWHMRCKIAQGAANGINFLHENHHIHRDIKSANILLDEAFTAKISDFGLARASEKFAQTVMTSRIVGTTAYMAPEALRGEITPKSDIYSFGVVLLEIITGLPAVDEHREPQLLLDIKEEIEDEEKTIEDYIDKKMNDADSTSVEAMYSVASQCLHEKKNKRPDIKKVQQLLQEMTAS
ASSAY PROCEDURE: Inhibition of wild-type human partial length IRAK4 (M1 to S460 residues) expressed in mammalian expression system by Kinomescan method
READOUT: IC50

>>> meas_value("COc1cc(N2CCOCC2)ccc1NC(=O)c1cccc(-c2ccn[nH]2)n1")
"17 nM"
>>> meas_value("CN(C)C/C=C/C(=O)Nc1cccc(C(=O)Nc2ccc(Nc3nccc(-c4cccnc4)n3)cc2)c1")
"> 10000 nM"

----------
# pIC50 per record follows
ASSAY TARGET: Interleukin-1 receptor-associated kinase 1 (Homo sapiens)
ASSAY PROCEDURE: Inhibition of wild-type human partial length IRAK1 (R194 to S712 residues) expressed in mammalian expression system by Kinomescan method
pIC50: −log10 of the molar value.
READOUT: pIC50

>>> meas_value("CN(C)C/C=C/C(=O)Nc1cccc(C(=O)Nc2ccc(Nc3nccc(-c4cccnc4)n3)cc2)c1")
7.85
>>> meas_value("COc1cc(N2CCOCC2)ccc1NC(=O)c1cccc(-c2ccn[nH]2)n1")
8.05

----------
ASSAY PROCEDURE: Cytotoxicity against human HBL1 cells expressing MYD88 mutant assessed as cell killing measured after 72 hrs by CellTiter-Glo luminescent cell viability assay
Type: functional, cell-based
MEASUREMENT CONTEXT: Homo sapiens, HBL1, 72 h; read-out: EC50
# EC50 per record follows
READOUT: EC50 (µM)

>>> meas_value("C=CC(=O)Nc1ccc(C(=O)Nc2ccc(NC(=O)c3cccc(-c4ccn[nH]4)n3)cc2)cc1")
14.6
>>> meas_value("CN(C)C/C=C/C(=O)Nc1cccc(C(=O)Nc2ccc(NC(=O)c3cccc(-c4ccn[nH]4)n3)cc2)c1")
18.2
>>> meas_value("C=CC(=O)Nc1cccc(C(=O)Nc2ccc(NC(=O)c3cccc(-c4ccn[nH]4)n3)cc2)c1")
12.1
